- STUDY_SYSTEM: Protein deacetylase HDAC6 (Homo sapiens, UniProt Q9UBN7)
- Sequence (Q9UBN7 whole entry): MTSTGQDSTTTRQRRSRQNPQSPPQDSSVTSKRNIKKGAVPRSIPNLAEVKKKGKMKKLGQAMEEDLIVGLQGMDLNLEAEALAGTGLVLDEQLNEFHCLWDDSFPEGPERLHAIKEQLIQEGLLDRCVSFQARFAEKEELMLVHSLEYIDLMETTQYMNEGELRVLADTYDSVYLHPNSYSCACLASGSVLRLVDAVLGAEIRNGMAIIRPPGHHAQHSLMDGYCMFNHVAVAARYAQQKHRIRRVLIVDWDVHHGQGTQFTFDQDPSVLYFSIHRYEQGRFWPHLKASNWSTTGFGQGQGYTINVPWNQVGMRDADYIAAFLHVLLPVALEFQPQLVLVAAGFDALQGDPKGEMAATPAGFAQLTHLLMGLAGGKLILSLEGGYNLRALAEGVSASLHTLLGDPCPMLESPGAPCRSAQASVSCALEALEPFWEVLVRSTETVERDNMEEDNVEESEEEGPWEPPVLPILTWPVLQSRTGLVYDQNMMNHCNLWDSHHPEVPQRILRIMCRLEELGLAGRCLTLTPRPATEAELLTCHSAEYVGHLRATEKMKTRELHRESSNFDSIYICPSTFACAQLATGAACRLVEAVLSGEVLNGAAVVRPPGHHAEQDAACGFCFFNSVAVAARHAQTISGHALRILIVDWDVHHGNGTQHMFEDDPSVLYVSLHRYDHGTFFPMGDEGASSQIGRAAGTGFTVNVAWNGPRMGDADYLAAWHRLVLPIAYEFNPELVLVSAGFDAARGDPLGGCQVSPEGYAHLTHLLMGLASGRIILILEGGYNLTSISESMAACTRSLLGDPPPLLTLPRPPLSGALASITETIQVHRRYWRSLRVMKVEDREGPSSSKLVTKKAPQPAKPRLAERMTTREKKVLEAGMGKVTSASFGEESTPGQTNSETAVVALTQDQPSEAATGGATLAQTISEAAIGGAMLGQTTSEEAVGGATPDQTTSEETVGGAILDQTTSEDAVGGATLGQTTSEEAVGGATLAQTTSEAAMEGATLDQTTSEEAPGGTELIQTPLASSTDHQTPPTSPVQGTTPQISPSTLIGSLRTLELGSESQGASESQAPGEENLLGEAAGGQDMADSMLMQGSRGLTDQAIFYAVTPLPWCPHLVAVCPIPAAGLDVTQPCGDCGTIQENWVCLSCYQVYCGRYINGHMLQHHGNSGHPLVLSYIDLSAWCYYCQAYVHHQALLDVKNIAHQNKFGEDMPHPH
- ASSAY: Inhibition of His-tagged recombinant human HDAC6 expressed in insect cells assessed as hydrolase activity using fluorogenic AC-LGK-ac-AMC as substrate measured after 60 mins by fluorescence analysis
OBSERVED_PROPERTY: pKi
Scale: pKi equals -log10([C]), with [C] in mol/L.

Input: Provide pKi, system Protein deacetylase HDAC6 (Homo sapiens, UniProt Q9UBN7), entry O=C(CCCCCCC(=O)C(F)(F)F)Nc1ccccc1
Output: 5.35

----------
- STUDY_SYSTEM: Histone deacetylase 8 (Homo sapiens)
- Sequence (Q9BY41 whole entry): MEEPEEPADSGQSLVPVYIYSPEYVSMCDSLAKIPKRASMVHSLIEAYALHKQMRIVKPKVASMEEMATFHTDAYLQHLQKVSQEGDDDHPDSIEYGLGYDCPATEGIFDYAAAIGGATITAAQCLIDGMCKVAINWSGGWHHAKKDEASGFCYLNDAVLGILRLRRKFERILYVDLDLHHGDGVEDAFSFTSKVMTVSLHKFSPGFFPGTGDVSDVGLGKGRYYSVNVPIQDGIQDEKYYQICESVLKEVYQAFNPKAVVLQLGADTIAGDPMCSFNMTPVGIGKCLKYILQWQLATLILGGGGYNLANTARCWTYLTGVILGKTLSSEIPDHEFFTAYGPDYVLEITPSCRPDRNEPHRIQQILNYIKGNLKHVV
- ASSAY: Inhibition of recombinant human HDAC8 expressed in Escherichia coli assessed as inhibition constant ki,1 using fluorogenic AC-LGK-tfa-AMC as substrate measured after 60 mins by fluorescence analysis
OBSERVED_PROPERTY: Ki (µM)
Value expressed in µM; do not type the unit.

Input: Name the recorded Ki of the item O=C(CCCCCCC(=O)C(F)(F)F)Nc1ccccc1 in your answer.
Output: 7.3
